Activity values, listed per item
Tested on: L6
ASSAY_REMARKS: Increase in 2-[3H]-deoxyglucose uptake in rat L6 cells at 10 uM after 16 hrs by scintillation counting analysis (reference value: 0%)
Type: functional
# unit: % | format: bare number

C=C(C=O)[C@@H]1CC[C@]2(C)CC[C@]3(C)[C@H](CC[C@@H]4[C@@]5(C)CC[C@H](OC(=O)C(Br)C(C)C)C(C)(C)[C@@H]5CC[C@]43C)[C@@H]12 (stereo not given in full) :: 3.1
C=C(C=O)[C@@H]1CC[C@]2(C)CC[C@]3(C)[C@H](CC[C@@H]4[C@@]5(C)CC[C@H](OC(C)=O)C(C)(C)[C@@H]5CC[C@]43C)[C@@H]12 :: 114.1
CC(=O)O[C@H]1CC[C@]2(C)[C@H]3CC[C@@H]4[C@H]5[C@H]([C@@H]6C=COC6)CC[C@]5(C)CC[C@@]4(C)[C@]3(C)CC[C@H]2C1(C)C :: 3.6

[Q] Tell me its Activity given CC1(C)[C@@H](O)CC[C@]2(C)[C@H]3CC[C@@H]4[C@H]5[C@H]([C@H]6C=NOC6c6ccccc6)CC[C@]5(C)CC[C@@]4(C)[C@]3(C)CC[C@@H]12 (stereo not given in full) as the entry.
[A] 13.2

[Q] Tell me its Activity given CC(C)C(Br)C(=O)O[C@H]1CC[C@]2(C)[C@H]3CC[C@@H]4[C@H]5[C@H]([C@H]6C=NN(C(=O)C(Br)C(C)C)C6)CC[C@]5(C)CC[C@@]4(C)[C@]3(C)CC[C@H]2C1(C)C (stereo not given in full) as the entry.
[A] 8.4
